Test system: SGC-7901
Assay: Cytotoxicity against human SGC7901 cells after 24 hrs by MTT assay
Format: functional, cell-based
Conditions: SGC-7901, 24 h
Item-by-item account of IC50
Give your result in µM as a bare value.

Oc1ccccc1/C=N/c1ccc([As]2SCCCS2)cc1 ... 7.69

Now, please, on to the next compound.
IN: Data request, read-out IC50, for "O=C(Nc1ccc([As]2SCCCS2)cc1)c1ccccc1O"
OUT: 14.5

----------
Test system: GES1
Assay: Cytotoxicity against human GES-1 cells after 24 hrs by MTT assay
Type: cell-based
Details: Homo sapiens, GES1, 24 h
Property name: IC50 (µM)
Quick note: give the figure in µM, leave out the unit.

O=C(Nc1ccc([As]2SCCCS2)cc1)c1ccccc1O ... 13.4

IN: For the compound "Oc1ccccc1/C=N/c1ccc([As]2SCCCS2)cc1" , what IC50 is on record?
OUT: 5.99
